assay-summary: A CellTox Green Cytotoxicity Assay to monitor cytotoxicity in HepG2 cells - 0 hour (AID 1224882); also: nearly all actives have a fitted effect of over 35% in size
conditions: CellTox Green fluorescence; series mostly up to 76.8 µM
The source made the active and inactive calls. Calls follow the shape of the dose curve; as a rule, active = well fitted activation curve with a large enough effect in the repeat runs; inconclusive = weak or mixed curves; inactive = flat fitted curve, though single readings scatter.
measurement-type: outcome

These solved cases illustrate the format of a correct answer.
1) CC1=C(/C=C/C(C)=C/C=C/C(C)=C/CO)C(C)(C)CCC1: inactive
2) O=C(Cl)c1c(Cl)c(Cl)c(C(=O)Cl)c(Cl)c1Cl: inactive
3) CCCCCCCCCC(=O)O: inactive
4) CC(C)Cc1ccccc1: inactive
5) O=C(Oc1ccccc1)c1ccc(O)cc1: inactive
6) CC[Si](OC(C)=O)(OC(C)=O)OC(C)=O: inactive

Give reported outcome value for NC(=O)NNc1ccccc1
inactive

Tell me its outcome given Cc1cc(O)cc(C)c1Cl as the entry.
inactive

Tell me its outcome given C[C@@H]1O[C@@H](OC[C@H]2O[C@@H](Oc3c(-c4ccc(O)c(O)c4)oc4cc(O)cc(O)c4c3=O)[C@H](O)[C@@H](O)[C@@H]2O)[C@H](O)[C@H](O)[C@H]1O as the entry.
inactive

Write down outcome measured for item CNC[C@H](O)[C@@H](O)[C@H](O)[C@H](O)CO
inactive

Look up and state reported outcome for CCCCCCCCCCCCN
inactive

Return value of outcome for input c1ccc2ccccc2c1 , no commentary.
inactive

For the compound CCCCCCCCCCCCOCC1CO1 (stereo unspecified) , give its reported outcome.
inactive

Provide outcome value for the following compound: O=C(c1ccc(O)cc1)c1ccc(O)cc1O
inactive

Give a short answer stating reported outcome for Cc1cc(NS(=O)(=O)c2ccc(N)cc2)no1 .
inactive

---

assay-target: Cytochrome P450 1A2 (Homo sapiens) (UniProt P05177)
Sequence (P05177 whole entry, looked up): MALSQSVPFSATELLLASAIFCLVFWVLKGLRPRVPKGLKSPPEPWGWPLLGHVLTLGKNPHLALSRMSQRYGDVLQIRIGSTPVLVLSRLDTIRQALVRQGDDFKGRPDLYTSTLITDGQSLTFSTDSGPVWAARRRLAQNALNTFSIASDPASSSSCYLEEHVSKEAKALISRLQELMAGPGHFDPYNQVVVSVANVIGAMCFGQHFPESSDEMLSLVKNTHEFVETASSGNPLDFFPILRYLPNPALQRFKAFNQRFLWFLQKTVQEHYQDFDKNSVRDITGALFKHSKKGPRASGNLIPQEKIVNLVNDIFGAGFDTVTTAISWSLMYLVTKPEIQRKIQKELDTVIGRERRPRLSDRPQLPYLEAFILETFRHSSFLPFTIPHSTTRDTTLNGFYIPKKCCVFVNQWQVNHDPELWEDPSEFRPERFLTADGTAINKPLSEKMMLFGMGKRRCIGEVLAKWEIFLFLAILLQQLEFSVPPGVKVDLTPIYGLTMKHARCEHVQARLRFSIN
assay-summary: Cytochrome P450 Family 1 Subfamily A Member 2 (CYP1A2) small molecule antagonists: luciferase reporter qHTS assay (AID 1671199); also: nearly all actives have a fitted effect of over 50% in size; also: potency is read from the fitted curve at half-maximal effect
conditions: P450-Glo CYP1A2 enzyme, luciferin luminescence, 1 h; series mostly up to 115 µM
Records with an inconclusive call do not appear. The source made the active and inactive calls. Calls follow the shape of the dose curve; as a rule, active = well fitted inhibition curve with a large enough effect in the repeat runs; inconclusive = weak or mixed curves; inactive = no such curve, though single readings can be large or run the other way.
measurement-type: Potency

See these solved cases before continuing.
1) CC(C)(N=C=O)c1cccc(C(C)(C)N=C=O)c1: inactive
2) CCCCCCOC(C)=O: inactive
3) CN(CCOc1ccc(CC2SC(=O)NC2=O)cc1)c1ccccn1 (stereo not drawn): inactive
4) CCc1ccc(O)cc1: inactive
5) CC1=CC[C@H]2C[C@@H]1C2(C)C: inactive

Proceeding to the next compound to report its Potency.
Identify Potency associated with the compound Cc1cc(O)c2c(c1)C(=O)c1cc(O)cc(O)c1C2=O
8.94 µM (active)

---

assay-target: Cytochrome P450 2C9 (Homo sapiens)
assay-summary: Cytochrome P450 Family 2 Subfamily C Member 9 (CYP2C9) small molecule antagonists: luciferase reporter qHTS assay (AID 1671198); also: nearly all actives have a fitted effect of over 50% in size
conditions: P450-Glo CYP2C9 enzyme assay, luciferin luminescence; series mostly up to 115 µM
Inconclusive results are not listed. The source made the active and inactive calls. Calls follow the shape of the dose curve; as a rule, active = well fitted inhibition curve with a large enough effect in the repeat runs; inconclusive = weak or mixed curves; inactive = no such curve, though single readings can be large or run the other way.
measurement-type: outcome

The examples below pair each entry with its known result.
1. CCCCCCOC(C)=O: inactive
2. Cc1cc(O)cc(C)c1Cl: inactive
3. OCCOCCOCCOCCO: inactive
4. CC(C)(C)C1CCC(O)CC1 (configuration not stated): inactive

Read the entry CCOC(=O)/C=C\C(=O)OCC and write its reported outcome.
inactive

Give a short answer stating reported outcome for CCCCCC/C=C/CCCCCCCC(=O)O .
inactive

Return reported outcome. Input molecule: O=C1O[C@H](CO)[C@@H](O)[C@H](O)[C@H]1O
inactive

---

assay-target: Estrogen receptor (Homo sapiens) (UniProt P03372)
Sequence (P03372 whole entry, looked up): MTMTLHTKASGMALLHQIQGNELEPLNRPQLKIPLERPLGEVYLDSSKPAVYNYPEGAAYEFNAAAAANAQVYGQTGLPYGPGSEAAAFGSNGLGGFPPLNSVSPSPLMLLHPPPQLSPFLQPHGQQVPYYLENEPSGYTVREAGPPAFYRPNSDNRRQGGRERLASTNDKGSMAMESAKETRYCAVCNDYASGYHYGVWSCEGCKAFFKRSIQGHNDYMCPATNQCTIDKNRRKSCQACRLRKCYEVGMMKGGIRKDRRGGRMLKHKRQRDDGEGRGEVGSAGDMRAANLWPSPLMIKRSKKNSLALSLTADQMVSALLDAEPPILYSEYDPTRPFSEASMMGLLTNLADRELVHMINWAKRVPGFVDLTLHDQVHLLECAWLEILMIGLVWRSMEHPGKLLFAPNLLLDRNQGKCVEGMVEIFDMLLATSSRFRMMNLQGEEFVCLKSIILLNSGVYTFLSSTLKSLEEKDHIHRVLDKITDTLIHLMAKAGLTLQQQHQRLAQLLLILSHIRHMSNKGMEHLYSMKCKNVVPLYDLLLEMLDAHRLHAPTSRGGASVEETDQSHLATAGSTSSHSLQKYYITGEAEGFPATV
assay-summary: qHTS assay to identify small molecule agonists of the estrogen receptor alpha (ER-alpha) signaling pathway (AID 743075);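 also: HEK293 GripTite cells with ER-alpha and UAS-driven beta-lactamase reporter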
conditions: HEK293 ER-alpha-UAS-bla, beta-lactamase FRET ratio, 18 h; series mostly up to 70.1 µM
Results filed as inconclusive are left out. Active and inactive are the calls of the source. Calls come from the whole dose curve.
measurement-type: outcome

1) CC(C)(C)C(=O)C1C(=O)c2ccccc2C1=O: inactive
2) CC#C[C@]1(O)CC[C@H]2[C@@H]3CCC4=CC(=O)CCC4=C3[C@@H](c3ccc(N(C)C)cc3)C[C@@]21C: inactive
3) O=C1O[C@H](CO)[C@@H](O)[C@H](O)[C@H]1O: inactive
4) CCc1ccccc1O: inactive
5) Cn1c([N+](=O)[O-])cnc1COC(N)=O: inactive

Provide measured outcome value, entry: CCCCOCCO
inactive

State its outcome for this compound: O=C(Cl)c1c(Cl)c(Cl)c(C(=O)Cl)c(Cl)c1Cl
inactive

Answer with the recorded outcome of O=C1CCCCC1 only.
inactive

---

assay-summary: qHTS assay to identify small molecule antagonists of the peroxisome proliferator-activated receptor gamma (PPARg) signaling pathway - cell viability counter screen (AID 743194); also: nearly all actives have a fitted effect of over 55% in size
conditions: PPARg-bla HEK293H viability, CellTiter-Glo luminescence, 17 h, co-treated with 50 nM rosiglitazone; series mostly up to 62.6 µM
Inconclusive results are not listed. Activity calls are given as the source filed them. Calls follow the shape of the dose curve; as a rule, active = well fitted cell-killing curve with a large enough effect in the repeat runs; inconclusive = weak or mixed curves, or effect the other way; inactive = no such curve, though single readings can be large or run the other way.
Please reply with one of these outcomes: YES (active), NO (inactive)

1) Cc1cc(NS(=O)(=O)c2ccc(N)cc2)no1: NO
2) Cc1cc(Cc2ccc(N)c(C)c2)ccc1N: NO
3) NC(=O)NNc1ccccc1: NO
4) NS(=O)(=O)c1cc2c(cc1Cl)NC=NS2(=O)=O: NO
5) CCC(=O)O: NO
6) CS(=O)(=O)c1ccc([C@@H](O)[C@@H](CO)NC(=O)C(Cl)Cl)cc1: NO

Note: attention shifts to another entry.
Returns: the outcome recorded for COC(=O)c1ccccc1O in this assay.
NO

---

assay-target: Estrogen receptor beta (Homo sapiens) (UniProt Q92731)
Sequence (Q92731 whole entry, looked up): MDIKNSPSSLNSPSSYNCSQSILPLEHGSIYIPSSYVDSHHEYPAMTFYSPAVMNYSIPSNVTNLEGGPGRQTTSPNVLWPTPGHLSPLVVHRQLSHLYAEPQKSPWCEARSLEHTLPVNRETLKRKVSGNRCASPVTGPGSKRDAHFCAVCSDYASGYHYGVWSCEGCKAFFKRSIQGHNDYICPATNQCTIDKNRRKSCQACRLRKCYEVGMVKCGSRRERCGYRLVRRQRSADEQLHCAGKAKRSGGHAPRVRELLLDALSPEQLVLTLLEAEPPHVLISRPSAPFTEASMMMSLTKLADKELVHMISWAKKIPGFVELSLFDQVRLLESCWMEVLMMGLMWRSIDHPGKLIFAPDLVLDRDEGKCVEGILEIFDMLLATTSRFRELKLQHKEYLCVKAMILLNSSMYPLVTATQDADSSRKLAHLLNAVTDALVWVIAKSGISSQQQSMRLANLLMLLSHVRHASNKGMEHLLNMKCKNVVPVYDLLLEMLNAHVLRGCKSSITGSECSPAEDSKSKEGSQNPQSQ
assay-summary: qHTS assay to identify small molecule antagonists of the estrogen receptor beta (ER-beta) signaling pathway (AID 1259378)
conditions: ER-beta-UAS-bla HEK293T, beta-lactamase FRET ratio, 16 h; series mostly up to 92.4 µM
Results filed as inconclusive are left out. Calls of active or inactive are those of the source. Calls come from the whole dose curve; as a rule, active = well fitted inhibition curve with a large enough effect in the signal ratio in the repeat runs (not every such curve was filed as active); inconclusive = weak or mixed curves, or effect the other way; inactive = no such curve, though single readings can be large or run the other way; the % refers to the signal ratio.
Use one of these outcomes when replying: TRUE = active, FALSE = inactive

1. ClC1=C(Cl)C(Cl)(Cl)C(Cl)=C1Cl: FALSE

# lookup: test call for Cc1cc(Cc2ccc(N)c(C)c2)ccc1N
FALSE

Tell me the recorded outcome of this test for COC(=O)c1ccccc1O .
FALSE

For this molecule, state the assay outcome: CCCCC(CC)COC(C)=O (stereo unspecified)
FALSE

Fill in: this test's call for O=C(Oc1ccccc1)c1ccc(O)cc1 is ___
TRUE

Outcome logged for CC(=O)[C@@]1(O)CC[C@H]2[C@@H]3CCC4=CC(=O)CC[C@]4(C)[C@H]3CC[C@@]21C in this assay:
FALSE

---

assay-summary: qHTS RealTime-Glo MT Cell Viability Assay in HEK293 cells - 24 hour (AID 1224886); also: top concentration of the series differs between compounds; nearly all actives have a fitted effect of over 50% in size
conditions: RealTime-Glo luminescence; series mostly up to 76.8 µM
Inconclusive results are not listed. The source made the active and inactive calls. Calls come from the whole dose curve; as a rule, active = well fitted cell-killing curve with a large enough effect in the repeat runs; inconclusive = weak or mixed curves, or effect the other way; inactive = flat fitted curve, though single readings scatter.
measurement-type: outcome

Please review the following examples before continuing.
1. CCCCC/C=C\C/C=C\CCCCCCCC(=O)OC: inactive
2. CC1=CC[C@H]2C[C@@H]1C2(C)C: inactive
3. CCCCCCC(C)(C)S: inactive
4. CCCCOCCO: inactive
5. Cc1cc(NS(=O)(=O)c2ccc(N)cc2)no1: inactive

Answer with the recorded outcome for the molecule listed here: CCOC(=O)[C@H](CCc1ccccc1)N[C@@H](C)C(=O)N1Cc2ccccc2C[C@H]1C(=O)O
inactive

Give outcome for the following molecule: CC1=C(CC(=O)O)c2cc(F)ccc2/C1=C\c1ccc(S(C)=O)cc1 (stereo not given)
inactive

Please report outcome for the following molecule: C/C=C(C)/C=C/C=C(C)C
inactive

Supply measured outcome of c1ccc2[nH]cnc2c1 in your reply.
inactive

State its outcome: NC(=O)NNc1ccccc1
inactive

---

assay-summary: qHTS assay to identify small molecule antagonists of the estrogen related receptor signaling pathway with the pleiotropic PPARgamma coactivator (PGC) from Tox21 10K library (AID 1224841); also: actives are mostly falling curves and most rising ones were filed inactive; nearly all actives have a fitted effect of over 50% in size
conditions: PGC/ERR reporter cell line, ONE-Glo luciferase, 18 h; series mostly up to 92.4 µM
Records with an inconclusive call do not appear. Calls of active or inactive are those of the source. How the calls were made is not given here.
measurement-type: outcome

1) CCCCOCCO: inactive
2) O=C1O[C@H](CO)[C@@H](O)[C@H](O)[C@H]1O: inactive
3) OC[C@@H](O)[C@@H](O)[C@H](O)[C@@H](O)CO: inactive
4) CCCCC(CC)C(=O)OCCOCCOCCOC(=O)C(CC)CCCC (stereo unspecified): inactive

Identify measured outcome associated with CCc1ccc(O)cc1
inactive

Please look at this compound and report its outcome: O=[N+]([O-])C(CO)(CO)CO
inactive

Kindly indicate its recorded outcome. Item: CCOC(=O)[C@H](CCc1ccccc1)N[C@@H](C)C(=O)N1Cc2ccccc2C[C@H]1C(=O)O
inactive

Please give measured outcome of the following entry: NCCNCCNCCNCCN
inactive

Quickly give me recorded outcome for C=C(C#N)C(=O)OCC
inactive

Output outcome of CCCCCCOC(C)=O
inactive
